All figures here come from patent US20240270793A1.

Measured target: T1, human HIF-1α PAS-B (238-349), recombinant, His-tagged (human, UniProt Q16665 238-349, labelled with Monolith NT-647 dye for MST)
T1 construct: range 238-349; Expressed in E. coli BL21(DE3)-Rosetta from pET28a; also called HIF-1α PAS-B domain; PAS-B domain of HIF-1α; not shown: His tag from pET28a vector (BamHI/SacI cloning)
T1 sequence (Q16665 238-349): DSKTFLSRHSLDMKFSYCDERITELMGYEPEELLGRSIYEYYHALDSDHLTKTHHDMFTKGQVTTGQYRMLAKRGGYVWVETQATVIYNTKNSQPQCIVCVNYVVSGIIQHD
Assay info: MST, HIF-1α PAS-B; bar chart of Kd (µM) for residues at position 5 of CRLIIF
Square brackets hold non-standard residues; d marks the D form. hLeu = CC(C)CC[C@H](N)C(=O)O

{"columns": ["Binder", "binding result"],
 "data": [
  ["cyclo(CRLI[hLeu]F) (SMILES CC[C@H](C)[C@@H]1NC(=O)[C@H](CC(C)C)NC(=O)[C@H](CCCNC(=N)N)NC(=O)[C@H](CS)NC(=O)[C@H](Cc2ccccc2)NC(=O)[C@H](CCC(C)C)NC1=O, also called Cyclo-CRLI(hL)F; cyclic peptide #33) [cyclo-cys arg leu ile h-leu phe]", "binds"],
  ["CRLILF (head-to-tail cyclic (cyclo-), also called Cyclo-CRLILF; cyclic peptide #36) [cyclo-cys arg leu ile leu phe]", "binds"],
  ["CRLIVF (head-to-tail cyclic (cyclo-), also called Cyclo-CRLIVF; cyclic peptide #37) [cyclo-cys arg leu ile val phe]", "binds"]
]}
